From: ChEMBL document CHEMBL2203208

- procedureDetails: in vitro
- experimentalSetup: human, liver microsomes
- Description: Clearance in human liver microsomes at 1 uM after 30 mins in presence of NADPH
measurementName: microsomal CLint at 0.5 h, 1 µM (µL/min/mg)

>>> print(df.to_string())
                                     smiles                  measurementname  limitqualifier  measurednumber
0  COc1cnc(Nc2cnc(Cl)c(NS(C)(=O)=O)c2)c(-c2nc(C)nc(N)n2)c1  microsomal CLint at 0.5 h, 1 µM               <              14
1  Cc1nc(N)nc(-c2cc(Cl)cnc2Nc2cnc(Cl)c(NS(=O)(=O)N(C)C)c2)n1  microsomal CLint at 0.5 h, 1 µM               =              47
2  COCCOc1cnc(Nc2cnc(Cl)c(NS(C)(=O)=O)c2)c(-c2nc(C)nc(N)n2)c1  microsomal CLint at 0.5 h, 1 µM               <              14
3  Cc1nc(N)nc(-c2cccnc2Nc2cnc(Cl)c(NS(C)(=O)=O)c2)n1  microsomal CLint at 0.5 h, 1 µM               <              14
4  COc1cnc(Nc2cnc(Cl)c(NS(=O)(=O)N(C)C)c2)c(-c2nc(C)nc(N)n2)c1  microsomal CLint at 0.5 h, 1 µM               =              26
